PROPERTY_NAME: melting point

Input: Name the reported melting point value associated with the compound CS(=O)(=O)c1ccc(-c2[nH]c3ccc(F)cc3c2-c2nc3cc(Cl)ccc3[nH]2)cc1
Output: 202 to 204 °C

Input: How about Cc1ccc(NN=Cc2c(-c3ccc(S(C)(=O)=O)cc3)[nH]c3ccc(F)cc23)cc1 ?
Output: 151 to 153 °C

Input: // next record CS(=O)(=O)c1ccc(N/N=C/c2c(-c3ccc(S(C)(=O)=O)cc3)[nH]c3ccc(F)cc23)cc1
Output: 187 to 188 °C

Input: Similarly, CS(=O)(=O)c1ccc(-c2[nH]c3ccc(F)cc3c2C=NNc2ccc(F)cc2)cc1 ?
Output: 200 to 202 °C

Input: Proceed to Cc1ccc2[nH]c(-c3ccc(S(C)(=O)=O)cc3)c(-c3nc4cc(Cl)ccc4[nH]3)c2c1
Output: 217 to 219 °C

Input: Follow-up entry: CS(=O)(=O)c1ccc(NN=Cc2c(-c3ccc(S(C)(=O)=O)cc3)[nH]c3ccccc23)cc1
Output: 228 to 230 °C

Input: // repeat for Cc1ccc2[nH]c(-c3ccc(S(C)(=O)=O)cc3)c(/C=N/Nc3ccc(S(N)(=O)=O)cc3)c2c1 and report
Output: 186 to 188 °C

Input: Let us now turn to Cc1ccc2[nH]c(-c3ccc(S(C)(=O)=O)cc3)c(C=NNc3ccc(F)cc3)c2c1
Output: 159 to 161 °C

Input: Same question for Cc1ccc(NN=Cc2c(-c3ccc(S(C)(=O)=O)cc3)[nH]c3ccc(C)cc23)cc1 please.
Output: 166 to 168 °C

Input: Again, but for CS(=O)(=O)c1ccc(-c2[nH]c3ccccc3c2-c2nc3cc(Cl)ccc3[nH]2)cc1
Output: 210 to 212 °C

Input: Same read-out for Cc1ccc2[nH]c(-c3ccc(S(C)(=O)=O)cc3)c(/C=N/Nc3ccc(S(C)(=O)=O)cc3)c2c1 ?
Output: 262 to 264 °C

Input: Thanks! And CS(=O)(=O)c1ccc(-c2[nH]c3ccc(F)cc3c2/C=N/Nc2ccc(S(N)(=O)=O)cc2)cc1 ?
Output: 212 to 214 °C

Input: Okay, and CS(=O)(=O)c1ccc(-c2[nH]c3ccccc3c2C=NNc2ccc(S(N)(=O)=O)cc2)cc1 ?
Output: 203 to 204 °C

Input: Entry to check: CS(=O)(=O)c1ccc(-c2[nH]c3ccccc3c2C=NNc2ccc(F)cc2)cc1
Output: 204 to 206 °C

Input: Quick one: Cc1ccc2[nH]c(-c3ccc(S(C)(=O)=O)cc3)c(C=NO)c2c1
Output: 212 to 214 °C

Input: Item: CS(=O)(=O)c1ccc(-c2[nH]c3ccc(F)cc3c2C=NO)cc1
Output: 226 to 228 °C

Input: Now the compound CS(=O)(=O)c1ccc(-c2[nH]c3ccccc3c2C=NO)cc1
Output: 199 to 201 °C

---

Field: Edema thickness (mm) ± SEM. Provide a value for each of the compounds that follow.
# System: carrageenan-induced rat paw edema
# PROCEDURE_SUMMARY: Carrageenan-induced rat paw edema assay; also: test concentration or dose not given here
# Format: in vivo
# DETAILS: 6 h, n = 4
Write down the numeric answer in mm and omit the unit.

Input: Provide value of Edema thickness (mm) ± SEM for this record tested with carrageenan-induced rat paw edema: Cc1ccc2[nH]c(-c3ccc(S(C)(=O)=O)cc3)c(/C=N/Nc3ccc(S(C)(=O)=O)cc3)c2c1 [Compound 7d]
Output: 0.405

Input: Follow-up item: Cc1ccc2[nH]c(-c3ccc(S(C)(=O)=O)cc3)c(C=NO)c2c1 [Compound 9c]
Output: 0.504

Input: Item: COc1ccc2c(c1)c(CC(=O)O)c(C)n2C(=O)c1ccc(Cl)cc1 [Indomethacin, indomethacin, reference compound]
Output: 0.075

Input: Ok, now CS(=O)(=O)c1ccc(-c2[nH]c3ccc(F)cc3c2/C=N/Nc2ccc(S(N)(=O)=O)cc2)cc1 [Compound 7i]
Output: 0.187

Input: Consider next the compound CS(=O)(=O)c1ccc(-c2[nH]c3ccccc3c2C=NNc2ccc(F)cc2)cc1 [Compound 7a] in the same way.
Output: 0.151

Input: Moving on to the next compound: Cc1ccc(-c2cc(C(F)(F)F)nn2-c2ccc(S(N)(=O)=O)cc2)cc1 [Celecoxib, celecoxib, reference compound]
Output: 0.100

Input: How about CS(=O)(=O)c1ccc(-c2[nH]c3ccc(F)cc3c2C=NNc2ccc(F)cc2)cc1 [Compound 7j] ?
Output: 0.549

Input: What would you report for CS(=O)(=O)c1ccc(-c2[nH]c3ccccc3c2C=NO)cc1 [Compound 9a] ?
Output: 0.714

Input: Same read-out for CS(=O)(=O)c1ccc(-c2[nH]c3ccc(F)cc3c2C=NO)cc1 [Compound 9b] ?
Output: 0.726

Input: Try this compound too: Cc1ccc(NN=Cc2c(-c3ccc(S(C)(=O)=O)cc3)[nH]c3ccc(C)cc23)cc1 [Compound 7g]
Output: 0.618

Input: Ok, now Cc1ccc2[nH]c(-c3ccc(S(C)(=O)=O)cc3)c(C=NNc3ccc(F)cc3)c2c1 [Compound 7f]
Output: 0.394

Input: Now consider CS(=O)(=O)c1ccc(NN=Cc2c(-c3ccc(S(C)(=O)=O)cc3)[nH]c3ccccc23)cc1 [Compound 7b] .
Output: 0.123

Input: What do we get for CS(=O)(=O)c1ccc(-c2[nH]c3ccccc3c2-c2nc3cc(Cl)ccc3[nH]2)cc1 [Compound 8a] ?
Output: 0.826

Input: Same question, CS(=O)(=O)c1ccc(-c2[nH]c3ccc(F)cc3c2-c2nc3cc(Cl)ccc3[nH]2)cc1 [Compound 8b] this time
Output: 0.451

Input: Can you handle Cc1ccc(NN=Cc2c(-c3ccc(S(C)(=O)=O)cc3)[nH]c3ccc(F)cc23)cc1 [Compound 7k] next?
Output: 0.638

Input: Same question for Cc1ccc2[nH]c(-c3ccc(S(C)(=O)=O)cc3)c(-c3nc4cc(Cl)ccc4[nH]3)c2c1 [Compound 8c] please.
Output: 0.489

Input: Another compound to look at: CS(=O)(=O)c1ccc(N/N=C/c2c(-c3ccc(S(C)(=O)=O)cc3)[nH]c3ccc(F)cc23)cc1 [Compound 7h]
Output: 0.138

Input: Please give the result for Cc1ccc2[nH]c(-c3ccc(S(C)(=O)=O)cc3)c(/C=N/Nc3ccc(S(N)(=O)=O)cc3)c2c1 [Compound 7e] too.
Output: 0.381

Input: Moving on to CS(=O)(=O)c1ccc(-c2[nH]c3ccccc3c2C=NNc2ccc(S(N)(=O)=O)cc2)cc1 [Compound 7c]
Output: 0.331

---

# System: carrageenan-induced rat paw edema
# PROCEDURE_SUMMARY: Carrageenan-induced rat paw edema assay; also: test concentration or dose not given here
# Format: in vivo
# DETAILS: 3 h
PROPERTY_NAME: Edema inhibition % (%)
// return numeric value only (unit: %, not printed)

Input: Data request, read-out Edema inhibition %, for CS(=O)(=O)c1ccc(-c2[nH]c3ccc(F)cc3c2-c2nc3cc(Cl)ccc3[nH]2)cc1
Output: 68.1

Input: // next record CS(=O)(=O)c1ccc(-c2[nH]c3ccccc3c2-c2nc3cc(Cl)ccc3[nH]2)cc1
Output: 58

Input: Now the same for Cc1ccc(-c2cc(C(F)(F)F)nn2-c2ccc(S(N)(=O)=O)cc2)cc1 [Celecoxib, celecoxib, reference compound]
Output: 95.5

Input: Same question, CS(=O)(=O)c1ccc(-c2[nH]c3ccccc3c2C=NNc2ccc(F)cc2)cc1 this time
Output: 88.7

Input: Another compound to look at: CS(=O)(=O)c1ccc(N/N=C/c2c(-c3ccc(S(C)(=O)=O)cc3)[nH]c3ccc(F)cc23)cc1
Output: 89.4

Input: // repeat for Cc1ccc2[nH]c(-c3ccc(S(C)(=O)=O)cc3)c(-c3nc4cc(Cl)ccc4[nH]3)c2c1 and report
Output: 71.9

Input: What do you get for Cc1ccc2[nH]c(-c3ccc(S(C)(=O)=O)cc3)c(/C=N/Nc3ccc(S(N)(=O)=O)cc3)c2c1 ?
Output: 71.1

---

For each of the compounds below, state its Edema inhibition %.
# Test system: carrageenan-induced rat paw edema
# PROCEDURE_SUMMARY: Carrageenan-induced rat paw edema assay; also: test concentration or dose not given here
# Assay type: in vivo
# DETAILS: 3 h
Report the figure along with its unit, number first.

Input: Return Edema inhibition % measured with carrageenan-induced rat paw edema given this compound: Cc1ccc(NN=Cc2c(-c3ccc(S(C)(=O)=O)cc3)[nH]c3ccc(C)cc23)cc1 [Compound 7g]
Output: 72.3%

Input: Would you kindly repeat that for CS(=O)(=O)c1ccc(-c2[nH]c3ccccc3c2C=NO)cc1 [Compound 9a] ?
Output: 61.8%

Input: CS(=O)(=O)c1ccc(-c2[nH]c3ccc(F)cc3c2/C=N/Nc2ccc(S(N)(=O)=O)cc2)cc1 [Compound 7i] ?
Output: 94.3%

Input: Also CS(=O)(=O)c1ccc(-c2[nH]c3ccc(F)cc3c2C=NNc2ccc(F)cc2)cc1 [Compound 7j] , if possible.
Output: 78.6%

Input: Now this one: Cc1ccc2[nH]c(-c3ccc(S(C)(=O)=O)cc3)c(C=NO)c2c1 [Compound 9c]
Output: 68.6%

Input: # repeat for Cc1ccc2[nH]c(-c3ccc(S(C)(=O)=O)cc3)c(/C=N/Nc3ccc(S(C)(=O)=O)cc3)c2c1 [Compound 7d]
Output: 77.5%

Input: Could you do the same for CS(=O)(=O)c1ccc(-c2[nH]c3ccccc3c2C=NNc2ccc(S(N)(=O)=O)cc2)cc1 [Compound 7c] , please?
Output: 81.2%

Input: CS(=O)(=O)c1ccc(NN=Cc2c(-c3ccc(S(C)(=O)=O)cc3)[nH]c3ccccc23)cc1 [Compound 7b] , same question.
Output: 91.2%

Input: Item: Cc1ccc2[nH]c(-c3ccc(S(C)(=O)=O)cc3)c(C=NNc3ccc(F)cc3)c2c1 [Compound 7f]
Output: 72.7%

Input: Repeat with COc1ccc2c(c1)c(CC(=O)O)c(C)n2C(=O)c1ccc(Cl)cc1 [Indomethacin, indomethacin, reference compound]
Output: 96%

Input: Can you check CS(=O)(=O)c1ccc(-c2[nH]c3ccc(F)cc3c2C=NO)cc1 [Compound 9b] next?
Output: 80.5%

Input: Consider next the compound Cc1ccc(NN=Cc2c(-c3ccc(S(C)(=O)=O)cc3)[nH]c3ccc(F)cc23)cc1 [Compound 7k] in the same way.
Output: 69.1%
